Recorded measurements of EC1.5, one per entry
# Species on record: Homo sapiens
# Method Description: Inhibition of mRNA splicing of human SMN2 exon 7 transfected in HEK293H cells assessed as compound concentration required to increase full-length SMN2 mRNA level by 1.5 times after 24 hrs by RT-qPCR analysis relative to GAPDH
# Type: cell-based
Parameter Measured: EC1.5

structure_notation=Cc1cn2cc(-c3cc4ccc(N5CCN(C(C)(C)C)CC5)cc4oc3=O)nc2c(C)n1 parameter_measured=EC1.5 result="59 nM"
structure_notation=COc1ccc(-c2cnc3cc(N4CCNCC4)ccn3c2=O)cc1OC parameter_measured=EC1.5 result="3200 nM"
structure_notation=Cc1cn2cc(-c3cc4ccc(C5CCN(C)CC5)cc4oc3=O)nc2c(C)n1 parameter_measured=EC1.5 result="11 nM"
structure_notation=O=c1oc2cc(N3CCNCC3)ccc2cc1-c1cn2ccncc2n1 parameter_measured=EC1.5 result="70 nM"
